All figures here come from ChEMBL document CHEMBL1151757.

Here, each record is paired with measured Ratio data.
# ASSAY_NOTES: Ratio of drug uptake in midbrain to cerebellum in anesthetized cynomolgus monkey after 22.5 mins postinjection
# Format: ADME, organism-based, Macaca fascicularis
# TEST_CONTEXT: in vivo, 0.375 h
METRIC_NAME: Ratio

COMPOUND: O=C(OCC[18F])C1C2CCC(CC1c1cccc(/C=C\Br)c1)N2 (centres undefined)
METRIC_NAME: Ratio
ASSAY_RESULT: 1.1
//
COMPOUND: O=C(OCCC[18F])C1C2CCC(CC1c1cccc(/C=C\I)c1)N2 (centres undefined)
METRIC_NAME: Ratio
ASSAY_RESULT: 1
//
COMPOUND: O=C(OCCC[18F])C1C2CCC(CC1c1cccc(/C=C\Br)c1)N2 (centres undefined)
METRIC_NAME: Ratio
ASSAY_RESULT: 1
//
COMPOUND: O=C(OCC[18F])C1C2CCC(CC1c1cccc(/C=C\I)c1)N2 (centres undefined)
METRIC_NAME: Ratio
ASSAY_RESULT: 1.1

###

# Tested on: Caudate
# ASSAY_NOTES: Drug uptake in anesthetized cynomolgus monkey brain caudate after 115 mins postinjection
# Format: ADME, organism-based, Macaca fascicularis, Caudate nucleus
# TEST_CONTEXT: in vivo
Below, each entry is listed alongside its reported Drug uptake.

MOLECULE: O=C(OCC[18F])C1C2CCC(CC1c1cccc(/C=C\Br)c1)N2 (stereo not given)
Drug uptake: 4.06
//
MOLECULE: O=C(OCC[18F])C1C2CCC(CC1c1ccc(/C=C\I)cc1)N2 (stereo not given)
Drug uptake: 3.11
//
MOLECULE: O=C(OCC[18F])C1C2CCC(CC1c1cccc(/C=C\I)c1)N2 (stereo not given)
Drug uptake: 3.17
//
MOLECULE: O=C(OCCC[18F])C1C2CCC(CC1c1cccc(/C=C\I)c1)N2 (stereo not given)
Drug uptake: 3.61
//
MOLECULE: O=C(OCCC[18F])C1C2CCC(CC1c1cccc(/C=C\Br)c1)N2 (stereo not given)
Drug uptake: 4.71

###

# System: Caudate
# ASSAY_NOTES: Drug uptake in anesthetized cynomolgus monkey brain caudate after 15.5 mins postinjection
# Format: ADME, organism-based, Macaca fascicularis, Caudate nucleus
# TEST_CONTEXT: in vivo

COMPOUND: O=C(OCC[18F])C1C2CCC(CC1c1ccc(/C=C\I)cc1)N2 (stereo not given)
Drug uptake: 1.74
//
COMPOUND: O=C(OCCC[18F])C1C2CCC(CC1c1cccc(/C=C\I)c1)N2 (stereo not given)
Drug uptake: 3.34
//
COMPOUND: O=C(OCC[18F])C1C2CCC(CC1c1cccc(/C=C\I)c1)N2 (stereo not given)
Drug uptake: 2.94
//
COMPOUND: O=C(OCCC[18F])C1C2CCC(CC1c1cccc(/C=C\Br)c1)N2 (stereo not given)
Drug uptake: 4.3
//
COMPOUND: O=C(OCC[18F])C1C2CCC(CC1c1cccc(/C=C\Br)c1)N2 (stereo not given)
Drug uptake: 2.89

###

# Ratio listing for each entry below
# ASSAY_NOTES: Ratio of drug uptake in frontal lobe to cerebellum in anesthetized cynomolgus monkey after 95 mins postinjection
# Format: ADME, organism-based, Macaca fascicularis
# TEST_CONTEXT: in vivo
METRIC_NAME: Ratio

COMPOUND: O=C(OCC[18F])C1C2CCC(CC1c1ccc(/C=C\I)cc1)N2 (stereo not given)
ASSAY_RESULT: 0.9
//
COMPOUND: O=C(OCC[18F])C1C2CCC(CC1c1cccc(/C=C\Br)c1)N2 (stereo not given)
ASSAY_RESULT: 0.9
//
COMPOUND: O=C(OCC[18F])C1C2CCC(CC1c1cccc(/C=C\I)c1)N2 (stereo not given)
ASSAY_RESULT: 1
//
COMPOUND: O=C(OCCC[18F])C1C2CCC(CC1c1cccc(/C=C\I)c1)N2 (stereo not given)
ASSAY_RESULT: 0.8
//
COMPOUND: O=C(OCCC[18F])C1C2CCC(CC1c1cccc(/C=C\Br)c1)N2 (stereo not given)
ASSAY_RESULT: 0.9

###

# Tested on: Midbrain
# ASSAY_NOTES: Drug uptake in anesthetized cynomolgus monkey brain midbrain after 175 mins postinjection
# Assay type: ADME, organism-based, Macaca fascicularis
# TEST_CONTEXT: in vivo
METRIC_NAME: Drug uptake

COMPOUND: O=C(OCC[18F])C1C2CCC(CC1c1cccc(/C=C\I)c1)N2 (stereo not given)
ASSAY_RESULT: 3.46
--
COMPOUND: O=C(OCC[18F])C1C2CCC(CC1c1ccc(/C=C\I)cc1)N2 (stereo not given)
ASSAY_RESULT: 4.61
--
COMPOUND: O=C(OCCC[18F])C1C2CCC(CC1c1cccc(/C=C\Br)c1)N2 (stereo not given)
ASSAY_RESULT: 4.91
--
COMPOUND: O=C(OCCC[18F])C1C2CCC(CC1c1cccc(/C=C\I)c1)N2 (stereo not given)
ASSAY_RESULT: 4.1
--
COMPOUND: O=C(OCC[18F])C1C2CCC(CC1c1cccc(/C=C\Br)c1)N2 (stereo not given)
ASSAY_RESULT: 4.13

###

# Tested on: Thalamus
# ASSAY_NOTES: Drug uptake in anesthetized cynomolgus monkey brain thalamus after 105 mins postinjection
# Format: ADME, organism-based, Macaca fascicularis
# Set-up: unit not given here
# TEST_CONTEXT: in vivo, 1.75 h

MOLECULE: O=C(OCCC[18F])C1C2CCC(CC1c1cccc(/C=C\I)c1)N2 (stereo not given)
Drug uptake: 4.44
//
MOLECULE: O=C(OCC[18F])C1C2CCC(CC1c1ccc(/C=C\I)cc1)N2 (stereo not given)
Drug uptake: 4.11
//
MOLECULE: O=C(OCC[18F])C1C2CCC(CC1c1cccc(/C=C\Br)c1)N2 (stereo not given)
Drug uptake: 4.23
//
MOLECULE: O=C(OCC[18F])C1C2CCC(CC1c1cccc(/C=C\I)c1)N2 (stereo not given)
Drug uptake: 3.74
//
MOLECULE: O=C(OCCC[18F])C1C2CCC(CC1c1cccc(/C=C\Br)c1)N2 (stereo not given)
Drug uptake: 5.06

###

# System: Medulla
# ASSAY_NOTES: Drug uptake in anesthetized cynomolgus monkey brain medulla after 65 mins postinjection
# Type: ADME, organism-based, Macaca fascicularis
# TEST_CONTEXT: in vivo
METRIC_NAME: Drug uptake

COMPOUND: O=C(OCCC[18F])C1C2CCC(CC1c1cccc(/C=C\I)c1)N2 (stereo not given)
METRIC_NAME: Drug uptake
ASSAY_RESULT: 4.96

COMPOUND: O=C(OCC[18F])C1C2CCC(CC1c1cccc(/C=C\Br)c1)N2 (stereo not given)
METRIC_NAME: Drug uptake
ASSAY_RESULT: 4.81

COMPOUND: O=C(OCCC[18F])C1C2CCC(CC1c1cccc(/C=C\Br)c1)N2 (stereo not given)
METRIC_NAME: Drug uptake
ASSAY_RESULT: 5.61

COMPOUND: O=C(OCC[18F])C1C2CCC(CC1c1cccc(/C=C\I)c1)N2 (stereo not given)
METRIC_NAME: Drug uptake
ASSAY_RESULT: 3.97

COMPOUND: O=C(OCC[18F])C1C2CCC(CC1c1ccc(/C=C\I)cc1)N2 (stereo not given)
METRIC_NAME: Drug uptake
ASSAY_RESULT: 3.75

###

# System: Putamen
# ASSAY_NOTES: Drug uptake in anesthetized cynomolgus monkey brain putamen after 95 mins postinjection
# Type: ADME, organism-based, Macaca fascicularis
# Set-up: unit not given here
# TEST_CONTEXT: in vivo
// boundary case: Drug uptake equal to 5 maps to False; strictly smaller maps to True

COMPOUND: O=C(OCC[18F])C1C2CCC(CC1c1cccc(/C=C\I)c1)N2 (stereo not given)
DISCRETE_LABEL: True
//
COMPOUND: O=C(OCCC[18F])C1C2CCC(CC1c1cccc(/C=C\I)c1)N2 (stereo not given)
DISCRETE_LABEL: True
//
COMPOUND: O=C(OCC[18F])C1C2CCC(CC1c1ccc(/C=C\I)cc1)N2 (stereo not given)
DISCRETE_LABEL: True
//
COMPOUND: O=C(OCCC[18F])C1C2CCC(CC1c1cccc(/C=C\Br)c1)N2 (stereo not given)
DISCRETE_LABEL: False
//
COMPOUND: O=C(OCC[18F])C1C2CCC(CC1c1cccc(/C=C\Br)c1)N2 (stereo not given)
DISCRETE_LABEL: True

###

Parameter: Drug uptake. Scope: all listed entries.
# System: Thalamus
# ASSAY_NOTES: Drug uptake in anesthetized cynomolgus monkey brain thalamus after 85 mins postinjection
# Assay type: ADME, organism-based, Macaca fascicularis
# Design: unit not given here
# TEST_CONTEXT: in vivo
METRIC_NAME: Drug uptake

MOLECULE: O=C(OCC[18F])C1C2CCC(CC1c1cccc(/C=C\Br)c1)N2 (centres undefined)
TARGET_SYSTEM: Thalamus
ASSAY_RESULT: 4.41
//
MOLECULE: O=C(OCCC[18F])C1C2CCC(CC1c1cccc(/C=C\I)c1)N2 (centres undefined)
TARGET_SYSTEM: Thalamus
ASSAY_RESULT: 4.59
//
MOLECULE: O=C(OCC[18F])C1C2CCC(CC1c1cccc(/C=C\I)c1)N2 (centres undefined)
TARGET_SYSTEM: Thalamus
ASSAY_RESULT: 4.04
//
MOLECULE: O=C(OCCC[18F])C1C2CCC(CC1c1cccc(/C=C\Br)c1)N2 (centres undefined)
TARGET_SYSTEM: Thalamus
ASSAY_RESULT: 5.27
